Tested on: Fer (mouse)
Test: phosphorylation enrichment, bacterial display (enrichment ratio); higher = better substrate or ligand; peptides without Tyr show the background
Label T when phosphorylation enrichment >= 0.4; otherwise F.

// below: answered sequences
IPGGIYNADLN [CST4_Y35_D36N]    T
TEQDPYNNIDR [MMUT_Y364_V368D]    T
ARAGEYGAEAL [HBA1_Y25_H21R]    F
SKNSKCNAEST [PSEN1_Y315_Y315C]    T
KASVDYIRKLQ [MITF_Y360]    F

**Query** Assess whether reported phosphorylation enrichment for RMDGTYACSYT [FLNB_Y704] sits at 0.4 or higher.
**Result** T

**Query** Assess whether reported phosphorylation enrichment for QQLQGYIPSNY [FRK_Y99] sits at 0.4 or higher.
**Result** F

**Query** Assess whether reported phosphorylation enrichment for IRTIDYRFTVW [IDS_Y497_YF] sits at 0.4 or higher.
**Result** T

**Query** Assess whether reported phosphorylation enrichment for VVKTVYSLQPP [KNSTRN_Y87] sits at 0.4 or higher.
**Result** F

**Query** Assess whether reported phosphorylation enrichment for KDGNGYISVAE [CALM3_Y100_A103V] sits at 0.4 or higher.
**Result** T

**Query** Assess whether reported phosphorylation enrichment for KCLAVYQAGAR [APOE_Y180_R176C] sits at 0.4 or higher.
**Result** T

**Query** Assess whether reported phosphorylation enrichment for GPRKAYELSQR [SETX_Y1297] sits at 0.4 or higher.
**Result** F

**Query** Assess whether reported phosphorylation enrichment for TKVTFYKQPMF [GBA_Y451_D448V] sits at 0.4 or higher.
**Result** T

----------
Biological target: EPHB1 (UniProt P54762)
Sequence (P54762 whole entry, looked up): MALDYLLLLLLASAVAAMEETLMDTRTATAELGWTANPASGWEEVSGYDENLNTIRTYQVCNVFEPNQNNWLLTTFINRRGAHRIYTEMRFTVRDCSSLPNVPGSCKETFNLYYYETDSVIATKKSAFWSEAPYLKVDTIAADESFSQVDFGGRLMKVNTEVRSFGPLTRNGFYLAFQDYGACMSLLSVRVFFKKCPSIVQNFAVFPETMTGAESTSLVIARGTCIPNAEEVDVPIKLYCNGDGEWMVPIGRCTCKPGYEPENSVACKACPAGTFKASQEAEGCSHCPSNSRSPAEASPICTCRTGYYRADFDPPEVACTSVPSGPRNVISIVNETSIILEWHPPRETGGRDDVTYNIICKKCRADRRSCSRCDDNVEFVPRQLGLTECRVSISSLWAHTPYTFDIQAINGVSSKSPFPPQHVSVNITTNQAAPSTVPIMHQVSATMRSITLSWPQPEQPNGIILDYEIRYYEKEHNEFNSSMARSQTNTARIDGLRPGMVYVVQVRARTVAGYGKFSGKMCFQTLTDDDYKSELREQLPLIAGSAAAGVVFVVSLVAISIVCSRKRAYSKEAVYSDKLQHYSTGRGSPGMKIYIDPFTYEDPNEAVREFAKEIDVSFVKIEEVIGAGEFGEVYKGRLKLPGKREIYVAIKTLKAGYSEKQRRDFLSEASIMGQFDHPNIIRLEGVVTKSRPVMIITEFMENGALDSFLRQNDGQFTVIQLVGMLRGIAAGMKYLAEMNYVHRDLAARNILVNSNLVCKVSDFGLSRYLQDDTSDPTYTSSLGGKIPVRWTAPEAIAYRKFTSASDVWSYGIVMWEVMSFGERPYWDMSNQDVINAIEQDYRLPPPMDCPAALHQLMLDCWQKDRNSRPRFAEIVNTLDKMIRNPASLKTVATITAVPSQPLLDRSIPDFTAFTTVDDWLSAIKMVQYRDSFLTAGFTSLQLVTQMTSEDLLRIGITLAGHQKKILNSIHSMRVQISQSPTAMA
Assay: phosphorylation enrichment, bacterial display (enrichment ratio); higher = better substrate or ligand; peptides without Tyr show the background
Category scheme (phosphorylation enrichment): class 1 = under 0.5, class 2 = from 0.5 up to 0.7, class 3 = 0.7 and over

// below: answered sequences
LEFAKYGSLRG [RET_Y809_V804L_YF]    class 1
ENGPFYASFPP [GDAP2_Y488_T489A_YF]    class 3
RQNQEYEILMD [KRT39_Y379_L383M]    class 3
GYITSYREEEQ    class 2
FSQQTYYRVSN [ABCD1_Y180]    class 3

**Query** Looking at LENSTYQFICV [CRB1_Y760_R764C_YF] , which class would you pick?
**Result** class 3

**Query** Looking at YADGVYQALEE [DUOX2_Y70] , which class would you pick?
**Result** class 3

**Query** Looking at CENNRYGMGAS [PDHA1_Y227_T231A] , which class would you pick?
**Result** class 1

**Query** Looking at GGRIDYIAGLV [APRT_Y60_D65V] , which class would you pick?
**Result** class 2

**Query** Looking at HLEKKYVHRDS [CSF1R_Y708_R710H] , which class would you pick?
**Result** class 1

**Query** Looking at DEGVNHFMSKG [FBXO8_Y156_Y156H] , which class would you pick?
**Result** class 1

**Query** Looking at FMCKVYSDRQP [FGFR1_Y280_P283R] , which class would you pick?
**Result** class 2

----------
Target: FGFR3 (UniProt P22607)
Sequence (P22607 whole entry, looked up): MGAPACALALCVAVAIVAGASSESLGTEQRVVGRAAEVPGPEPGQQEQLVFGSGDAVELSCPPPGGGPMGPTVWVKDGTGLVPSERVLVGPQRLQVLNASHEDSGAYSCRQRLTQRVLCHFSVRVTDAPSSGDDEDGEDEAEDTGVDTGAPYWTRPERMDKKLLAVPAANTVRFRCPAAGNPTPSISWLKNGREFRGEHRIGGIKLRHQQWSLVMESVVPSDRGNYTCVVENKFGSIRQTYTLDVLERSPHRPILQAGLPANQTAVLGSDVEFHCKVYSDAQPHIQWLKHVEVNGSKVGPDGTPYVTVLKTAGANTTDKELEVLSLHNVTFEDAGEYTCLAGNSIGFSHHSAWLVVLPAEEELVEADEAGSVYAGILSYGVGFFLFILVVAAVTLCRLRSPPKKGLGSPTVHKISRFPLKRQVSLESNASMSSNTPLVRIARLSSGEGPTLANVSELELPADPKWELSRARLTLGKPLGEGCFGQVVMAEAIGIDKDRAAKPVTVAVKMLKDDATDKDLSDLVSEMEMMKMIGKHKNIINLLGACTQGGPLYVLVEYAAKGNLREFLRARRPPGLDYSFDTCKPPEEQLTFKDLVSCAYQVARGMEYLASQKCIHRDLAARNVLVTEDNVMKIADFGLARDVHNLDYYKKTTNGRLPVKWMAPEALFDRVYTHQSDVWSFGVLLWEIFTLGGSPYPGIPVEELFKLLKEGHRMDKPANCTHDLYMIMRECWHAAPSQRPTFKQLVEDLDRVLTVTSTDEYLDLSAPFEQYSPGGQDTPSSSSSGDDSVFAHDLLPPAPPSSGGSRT
Assay: phosphorylation enrichment, bacterial display (enrichment ratio); higher = better substrate or ligand; peptides without Tyr show the background
Record form. Attribute: phosphorylation enrichment. Fill in for each entry.
Numbers only.

Examples with their reported phosphorylation enrichment follow.
STTIHYNFMCN [TP53_Y234_C229S_YF]    0.797
AKLKDYYIFNK [CCDC42_Y149]    2.16
INNIDYFKKTT [FGFR2_Y656_YF]    0.64
GRQWNYVASMS [KLHL4_Y552]    0.539
KMKGDYFCFLA [YWHAG_Y130_R132C_YF]    9.56

For each entry beneath this line, provide reported phosphorylation enrichment.
1. FTFTSYFMHWV [IGHV1-46_Y51_YF]
2. PVQAAYQKVVD [HBB_Y131_A136D]
3. TEFIQYMRRKN [MAX_Y73_YF]
4. GGEAIYAAPFA [Abl_opt_1995]

**Result**
[0.765, 0.515, 0.486, 2.05]

For each entry beneath this line, provide reported phosphorylation enrichment.
1. SEDSEYFRAFE [CASQ2_Y178_K180R_YF]
2. LTTPTYGDLNH [TUBB_Y222]

**Result**
1. 0.854
2. 1.11

For each entry beneath this line, provide reported phosphorylation enrichment.
1. QRRLVYFERGA [RYR1_Y245_G248R_YF]
2. RHPYFFAPELL [ALB_Y174_Y174F]
3. TENAGYFFRVS

**Result**
1. 0.742
2. 13.9
3. 0.853

----------
Record form. Attribute: SH2 binding enrichment. Fill in for each entry.
Target: SHP2-C SH2;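 further: peptide library displayed on the E. coli surface as eCPX fusions, selected cells deep-sequenced, score is each peptide's frequency after selection divided by its frequency in the input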
Assay: SH2 binding enrichment of the phosphorylated peptide, bacterial display (enrichment ratio); higher = better substrate or ligand; peptides without Tyr show the background
Numbers only.

Examples with their reported SH2 binding enrichment follow.
LENSTYQFICV [CRB1_Y760_R764C_YF]    0.739
LIFVSYDDWDY [GRIN2A_Y281_S278F]    1.38
MDDPRYGVCPL [ZNF100_Y6_M8V]    0.616
NFFDLYGGEKF [PTPN11_Y66_D61N_YF]    0.827
IGEGTYGVLFK [CDK2_Y15_V18L_YF]    0.8
LGRTVYADCLA [ABCA4_Y2063_L2060R]    3.39
QGGRCYMMIVD [GAA_Y438_R437C]    0.674
ISIFRYAKGQP [MPZ_Y82_H81R]    0.534

For each entry beneath this line, provide reported SH2 binding enrichment.
1. SGDINYGQFAQ [PLCG1_Y210_T209N]
2. SCRENYSFSEE [LEMD3_Y258_D260Y_YF]
3. HNVPICEGYAL [ACTC1_Y168_Y168C]
4. GGRIDYIAGLV [APRT_Y60_D65V]
5. VVKLTYNENDN [CAMKK2_Y183_A182T]
6. CTTIHYNDMCN [TP53_Y234_Y236D]
7. TLPAFYMENFS [GLB1_Y552_G554E]
8. GLDGSYLLRFS [SH2D1A_Y29_D33Y_YF]

**Result**
1. 0.596
2. 0.716
3. 0.779
4. 0.582
5. 0.673
6. 0.658
7. 0.638
8. 0.937

----------
Tested on: AncSZ
Experiment: phosphorylation enrichment, bacterial display (enrichment ratio); higher = better substrate or ligand; peptides without Tyr show the background
property: phosphorylation enrichment
Numbers only.

STSKTYVISQT [RBBP6_Y87_R91Q]    0.591

For each entry beneath this line, provide reported phosphorylation enrichment.
1. EFRFIYMAVQH [PTPN11_Y515_Q510E_YF]
2. VKPRRYRPGTV [H3-5_Y41_H39R]

**Result**
1. 1.31
2. 0.622

For each entry beneath this line, provide reported phosphorylation enrichment.
1. IGNGYYFHVFS [MYBPC3_Y1136_R1138H]
2. STEPQYQPGEN [SRC_Y530]
3. VEKEKYVSYIS [JMJD1C_Y596_M591V]
4. EEALYYLTRVE [SET_Y119_H118Y]
5. LSVISYDLGMF [GBA3_Y174_M172I]
6. MAQDIYRASYY [ALK_Y1278_R1275Q]
7. RLLVFYPWTQR [HBB_Y36_V35F]
8. LPVHFYSHVEH [PYGM_Y204_G205S]

**Result**
[1.46, 0.825, 0.76, 2.55, 1.2, 0.662, 2.05, 1.13]

For each entry beneath this line, provide reported phosphorylation enrichment.
1. RAIELCNDKEK [OTULIN_Y244_Y244C]
2. CTTIHYNYLCN [TP53_Y234_M237L]

**Result**
0.852
0.873

----------
Target: Fyn (UniProt P06241)
Sequence (P06241 whole entry, looked up): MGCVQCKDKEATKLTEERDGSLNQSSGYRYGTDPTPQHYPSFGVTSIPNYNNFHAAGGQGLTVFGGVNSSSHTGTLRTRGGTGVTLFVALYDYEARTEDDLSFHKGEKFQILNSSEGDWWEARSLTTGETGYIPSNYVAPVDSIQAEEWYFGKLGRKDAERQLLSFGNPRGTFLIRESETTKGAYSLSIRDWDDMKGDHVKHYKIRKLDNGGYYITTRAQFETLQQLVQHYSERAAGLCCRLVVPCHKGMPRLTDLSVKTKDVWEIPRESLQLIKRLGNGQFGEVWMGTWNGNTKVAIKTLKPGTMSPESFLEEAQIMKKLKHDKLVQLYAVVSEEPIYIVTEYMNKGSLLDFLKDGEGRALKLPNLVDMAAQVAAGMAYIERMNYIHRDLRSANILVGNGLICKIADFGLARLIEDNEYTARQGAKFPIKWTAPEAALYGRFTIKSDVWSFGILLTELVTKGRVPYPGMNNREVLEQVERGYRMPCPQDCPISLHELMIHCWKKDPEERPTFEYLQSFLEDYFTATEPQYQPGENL
Assay: phosphorylation enrichment, bacterial display (enrichment ratio); higher = better substrate or ligand; peptides without Tyr show the background
Label 1 when phosphorylation enrichment >= 0.5; otherwise 0.

YHRQLYHKCTH [F12_Y58]    0
NPIGLYSAEIL [LDB3_Y202_T206I]    1
SKNFTYIWWLN [PSG4_Y271_YF]    0
EARRVYGDIIF [ALDH5A1_Y175_H180Y_YF]    1
PKEEPYKMQEK [SLC5A3_Y565_Q566K]    0

**Query** Assess whether reported phosphorylation enrichment for LSNPAYCLLLA [DDR1_Y513_R514C] sits at 0.5 or higher.
**Result** 1

**Query** Assess whether reported phosphorylation enrichment for LRLSSYSTTIR [CYP7B1_Y365] sits at 0.5 or higher.
**Result** 1

**Query** Assess whether reported phosphorylation enrichment for VQEDIYDEFVV [ALDH2_Y332_E337V] sits at 0.5 or higher.
**Result** 1

**Query** Assess whether reported phosphorylation enrichment for VFAPDFIAGVS [NOB1_Y366_Y366F] sits at 0.5 or higher.
**Result** 0
